systemUnderTest: T1, Human PPARδ-LBD (amino acids 170–441) (human, UniProt Q03181 170-441)
T1 sequence (looked up): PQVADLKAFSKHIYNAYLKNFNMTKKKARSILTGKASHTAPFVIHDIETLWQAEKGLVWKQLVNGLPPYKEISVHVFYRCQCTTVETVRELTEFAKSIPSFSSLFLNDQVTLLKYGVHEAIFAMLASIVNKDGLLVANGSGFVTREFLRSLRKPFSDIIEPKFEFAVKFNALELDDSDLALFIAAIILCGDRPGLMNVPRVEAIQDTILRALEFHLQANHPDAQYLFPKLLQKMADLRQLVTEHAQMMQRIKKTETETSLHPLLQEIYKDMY
procedureSummary: FRET or BRET; same cell-free TR-FRET coactivator recruitment; with approved drug (pemafibrate for PPARα, seladelpar for PPARδ, pioglitazone for PPARγ), concentration series; response as percent of the maximal response with 1 µM GW full agonist
conditionNotes: both partners purified
Ends that are not written are not given here.
readoutType: binding result

{"columns": ["binder", "readoutType", "result"],
 "data": [
  ["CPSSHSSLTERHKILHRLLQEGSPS (also: biotin-labeled, position not given here, source: synthetic peptide (GenScript)) [SRC1 coactivator peptide, AAs 676–700]", "binding result", "binds"],
  ["SGNLVPDAASKHKQLSELLRGGSGS (also: biotin-labeled, position not given here, source: synthetic peptide (GenScript)) [CBP coactivator peptide, AAs 56–80]", "binding result", "binds"],
  ["PVSSMAGNTKNHPMLMNLLKDNPAQ (also: biotin-labeled, position not given here, Thyroid hormone receptor-associated protein 220, amino acids 631-655, holds an LXXLL motif (LMNLL); also called thyroid hormone receptor-associated protein 220 peptide; source: synthetic peptide (GenScript)) [TRAP220 coactivator peptide, AAs 631–655]", "binding result", "binds"],
  ["EAEEPSLLKKLLLAPANTQ (also: biotin-labeled, position not given here, source: synthetic peptide (GenScript)) [PGC1α coactivator peptide, AAs 137–155]", "binding result", "binds"]
]}
